Molecular target: T1, CLDN6 endogenously expressed by human cancer cell lines (ARK2, OVCA429) (human, UniProt P56747 1-220)
T1 construct: Untagged endogenous protein; also called Endogenous CLDN6+
T1 sequence: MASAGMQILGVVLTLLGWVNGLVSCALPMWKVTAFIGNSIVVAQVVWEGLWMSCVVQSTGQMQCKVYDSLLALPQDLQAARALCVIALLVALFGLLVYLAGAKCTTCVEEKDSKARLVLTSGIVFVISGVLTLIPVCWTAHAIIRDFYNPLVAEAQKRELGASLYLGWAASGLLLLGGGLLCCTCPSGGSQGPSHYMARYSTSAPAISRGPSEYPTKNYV
Test: FACS, 0.3 µg Ab, ARK2 cells
READOUT_TYPE: FACS fluorescence

BINDER: AB1-3 (antibody, V domains shown, also called Humanized AB 1-3) VH: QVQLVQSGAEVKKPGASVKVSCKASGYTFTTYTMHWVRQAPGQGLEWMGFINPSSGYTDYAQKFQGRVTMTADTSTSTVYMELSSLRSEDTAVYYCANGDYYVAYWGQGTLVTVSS VL: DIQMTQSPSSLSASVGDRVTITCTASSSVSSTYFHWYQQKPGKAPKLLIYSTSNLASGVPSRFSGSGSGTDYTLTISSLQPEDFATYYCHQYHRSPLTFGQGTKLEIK
REPORTED_VALUE: 2830
//
BINDER: AB1-11 (antibody, V domains shown, Humanized; also called Humanized AB 1-11) VH: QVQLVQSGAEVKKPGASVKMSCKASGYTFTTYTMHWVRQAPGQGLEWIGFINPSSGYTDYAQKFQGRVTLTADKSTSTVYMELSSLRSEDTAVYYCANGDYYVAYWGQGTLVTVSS VL: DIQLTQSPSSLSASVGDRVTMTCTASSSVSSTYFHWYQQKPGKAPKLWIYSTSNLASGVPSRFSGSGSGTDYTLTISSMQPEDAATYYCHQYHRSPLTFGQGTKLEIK
REPORTED_VALUE: 53900
//
BINDER: AB4-12 (antibody, V domains shown, Humanized; also called Humanized AB 4-12) VH: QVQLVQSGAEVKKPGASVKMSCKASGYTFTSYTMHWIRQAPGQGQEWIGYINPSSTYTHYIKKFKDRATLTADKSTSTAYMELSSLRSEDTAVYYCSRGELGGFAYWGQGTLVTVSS VL: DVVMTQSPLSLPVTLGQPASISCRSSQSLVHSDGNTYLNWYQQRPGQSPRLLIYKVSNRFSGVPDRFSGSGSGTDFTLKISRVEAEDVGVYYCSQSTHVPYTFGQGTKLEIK
REPORTED_VALUE: 9690
//
BINDER: AB3-3 (antibody, V domains shown, also called Humanized AB 3-3) VH: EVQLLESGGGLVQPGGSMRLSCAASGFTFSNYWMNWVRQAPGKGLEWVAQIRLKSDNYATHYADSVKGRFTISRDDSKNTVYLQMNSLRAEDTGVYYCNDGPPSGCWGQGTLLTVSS VL: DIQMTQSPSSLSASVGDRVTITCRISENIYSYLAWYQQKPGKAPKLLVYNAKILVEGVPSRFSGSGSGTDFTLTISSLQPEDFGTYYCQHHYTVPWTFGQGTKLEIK
REPORTED_VALUE: 1160
//
BINDER: AB1-5 (antibody, V domains shown, also called Humanized AB 1-5) VH: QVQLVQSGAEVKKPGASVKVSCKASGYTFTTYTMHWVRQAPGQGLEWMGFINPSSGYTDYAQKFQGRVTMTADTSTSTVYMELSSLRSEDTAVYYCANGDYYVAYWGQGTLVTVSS VL: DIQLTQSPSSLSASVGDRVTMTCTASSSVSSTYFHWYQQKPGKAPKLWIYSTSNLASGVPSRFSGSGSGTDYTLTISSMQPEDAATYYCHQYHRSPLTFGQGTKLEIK
REPORTED_VALUE: 7490
//
BINDER: AB1-8 (antibody, V domains shown, Humanized; also called Humanized AB 1-8) VH: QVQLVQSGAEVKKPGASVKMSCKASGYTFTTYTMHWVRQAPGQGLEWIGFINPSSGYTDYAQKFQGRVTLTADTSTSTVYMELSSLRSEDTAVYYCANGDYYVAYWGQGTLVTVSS VL: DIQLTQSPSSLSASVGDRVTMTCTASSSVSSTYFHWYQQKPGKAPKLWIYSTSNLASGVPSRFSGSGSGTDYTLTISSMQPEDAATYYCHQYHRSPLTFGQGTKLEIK
REPORTED_VALUE: 5810
//
BINDER: AB18-chim (antibody, V domains shown, 'chim' is the pre-humanized form (parental variable regions); also called pre-humanized (chimeric) form of AB18) VH: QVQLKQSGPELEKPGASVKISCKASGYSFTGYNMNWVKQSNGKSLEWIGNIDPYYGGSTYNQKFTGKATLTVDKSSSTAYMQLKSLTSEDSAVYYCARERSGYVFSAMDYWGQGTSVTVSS VL: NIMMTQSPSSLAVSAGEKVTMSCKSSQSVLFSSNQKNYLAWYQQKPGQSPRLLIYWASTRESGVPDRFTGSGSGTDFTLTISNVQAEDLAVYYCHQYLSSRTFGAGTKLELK
REPORTED_VALUE: 3440
//
BINDER: AB4-9 (antibody, V domains shown, Humanized; also called Humanized AB 4-9) VH: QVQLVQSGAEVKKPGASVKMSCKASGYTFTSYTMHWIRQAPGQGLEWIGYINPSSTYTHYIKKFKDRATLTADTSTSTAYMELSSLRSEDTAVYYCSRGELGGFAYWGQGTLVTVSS VL: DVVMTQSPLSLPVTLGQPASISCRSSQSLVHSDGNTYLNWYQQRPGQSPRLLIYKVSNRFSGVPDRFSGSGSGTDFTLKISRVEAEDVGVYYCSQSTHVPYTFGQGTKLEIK
REPORTED_VALUE: 3060
//
BINDER: AB3-7 (antibody, V domains shown, also called Humanized AB 3-7) VH: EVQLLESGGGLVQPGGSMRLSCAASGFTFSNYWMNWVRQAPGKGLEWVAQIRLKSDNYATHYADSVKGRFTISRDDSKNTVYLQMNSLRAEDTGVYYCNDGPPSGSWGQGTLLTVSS VL: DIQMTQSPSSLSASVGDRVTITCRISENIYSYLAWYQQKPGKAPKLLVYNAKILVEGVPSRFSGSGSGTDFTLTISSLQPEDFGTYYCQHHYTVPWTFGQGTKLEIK
REPORTED_VALUE: 36000
//
BINDER: AB9-4 (antibody, V domains shown, also called Humanized AB 9-4) VH: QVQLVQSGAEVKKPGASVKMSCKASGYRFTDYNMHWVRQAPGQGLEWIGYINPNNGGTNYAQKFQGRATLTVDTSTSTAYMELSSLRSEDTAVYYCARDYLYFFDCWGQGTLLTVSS VL: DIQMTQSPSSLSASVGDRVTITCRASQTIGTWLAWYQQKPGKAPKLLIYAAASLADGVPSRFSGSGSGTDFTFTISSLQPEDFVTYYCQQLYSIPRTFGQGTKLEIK
REPORTED_VALUE: 1120
